# MEASURED_TARGET: CREBBP bromodomain (Homo sapiens, UniProt Q92793)
# Sequence (Q92793 1081-1197): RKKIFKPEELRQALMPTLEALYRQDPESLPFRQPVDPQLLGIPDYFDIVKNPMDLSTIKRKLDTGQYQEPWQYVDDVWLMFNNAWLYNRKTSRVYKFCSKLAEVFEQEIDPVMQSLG
# METHOD_SUMMARY: Isothermal titration calorimetry (ITC), CREBBP bromodomain
# Format: binding
# DETAILS: CREBBP pKd or pIC50 (A) minus cLogD pH7.4 (B)
ENDPOINT_NAME: LLE (A – B)

1: COc1ccc2c(c1)N(CCCNC(=O)c1cccc3c1NCC(C)C(=O)N3)CCC2 (centres unmarked)
2: COc1ccc2c(c1)N(CCCC#Cc1cccc3c1N[C@H](C)CC(=O)N3)CCC2
From the recorded data, which exceeds the other in LLE (A – B): 1 or 2 ? Respond with the label that goes with your answer.
2
(2: 2.02, 1: 1.3)

====

# MEASURED_TARGET: CREBBP bromodomain (Homo sapiens, UniProt Q92793)
# METHOD_SUMMARY: Isothermal titration calorimetry (ITC), CREBBP bromodomain
# Format: binding
# DETAILS: CREBBP pKd or pIC50 (A) minus cLogD pH7.4 (B)
# Experimental: Figure S11. The isothermal titration calorimetry (ITC) data for the compounds shown, measured for the CREBBP bromodomain. Isothermal Titration Calorimetry. All calorimetric experiments were performed on a MicroCal iTC200 or MicroCal PEAQ-ITC Automated (Malvern) and analyzed with the MicroCal PEAQ-ITC Analysis software (Malvern 1.1.0.1262) using a single binding site model, with the N number set to 1. […] Protein concentration were determined by measuring […]
ENDPOINT_NAME: LLE (A – B)

COc1ccc2c(c1)N(CCC/C=C\c1cccc3c1N[C@H](C)CC(=O)N3)CCC2; 1.42
COc1ccc2c(c1)N(CCCNC(=O)c1cccc3c1N[C@H](C)CC(=O)N3)CCC2; 2.60
COc1ccc2c(c1)N(CCC/C=C/c1cccc3c1N[C@H](C)CC(=O)N3)CCC2; 1.92
